Target: T1, sIL-6R (soluble IL-6 receptor; SBH Sciences) (human, UniProt P08887 20-365)
T1 construct: also called human IL-6R
T1 sequence: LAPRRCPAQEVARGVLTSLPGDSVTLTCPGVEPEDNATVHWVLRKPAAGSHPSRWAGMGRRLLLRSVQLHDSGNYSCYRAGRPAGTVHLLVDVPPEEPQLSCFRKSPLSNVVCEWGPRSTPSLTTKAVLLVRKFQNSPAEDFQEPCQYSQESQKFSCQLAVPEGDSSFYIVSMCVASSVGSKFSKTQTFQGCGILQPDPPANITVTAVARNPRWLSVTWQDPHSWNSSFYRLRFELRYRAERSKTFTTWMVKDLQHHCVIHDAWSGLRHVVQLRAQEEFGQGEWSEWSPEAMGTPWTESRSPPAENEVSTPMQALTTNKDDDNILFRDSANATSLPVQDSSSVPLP
Assay: SPR (BIAcore 3000), antibody on chip, sIL-6R analyte, 25 C
For each of the binders below, state its Relative Affinity.

Any idea what Relative Affinity was measured for 229# (antibody, human IgG1, kappa, V domains shown) VH: QVQLQESGPGLVRPSQTLSLTCTVSGYSITSDHAWSWVRQPPGRGLEWIGYISYSGMITYNPSLKSRVTMLRDTSKNQFSLRLSSVTAADTAVYYCARSLARMTAIDFWGQGSLVTVSS VL: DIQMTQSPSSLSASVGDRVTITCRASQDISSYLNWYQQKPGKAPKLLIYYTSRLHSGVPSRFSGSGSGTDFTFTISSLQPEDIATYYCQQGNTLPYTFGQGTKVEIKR ?
5.2 fold vs 25 (Tocilizumab)

Any idea what Relative Affinity was measured for 246# (antibody, human IgG1, kappa, V domains shown) VH: QVQLQESGPGLVRPSQTLSLTCTVSGYSITSDHAWSWVRQPPGRGLEWIGYISYSGMITYNPSLKSRVTMLRDTSKNQFSLRLSSVTAADTAVYYCARTLARTTAIDFWGQGSLVTVSS VL: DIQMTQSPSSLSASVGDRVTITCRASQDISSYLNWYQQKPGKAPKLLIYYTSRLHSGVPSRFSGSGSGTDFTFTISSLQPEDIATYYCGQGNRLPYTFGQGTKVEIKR ?
40.1 fold vs 25 (Tocilizumab)

Any idea what Relative Affinity was measured for 216# (antibody, human IgG1, kappa, V domains shown, also called Sample # 216) VH: QVQLQESGPGLVRPSQTLSLTCTVSGYSITSDHAWSWVRQPPGRGLEWIGYISYSGMITYNPSLKSRVTMLRDTSKNQFSLRLSSVTAADTAVYYCARSLARTTAIDFWGQGSLVTVSS VL: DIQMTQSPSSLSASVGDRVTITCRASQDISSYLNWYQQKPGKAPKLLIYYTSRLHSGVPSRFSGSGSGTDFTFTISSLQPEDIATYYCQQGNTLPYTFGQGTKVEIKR ?
1.7 fold vs 25 (Tocilizumab)

Any idea what Relative Affinity was measured for 233# (antibody, human IgG1, kappa, V domains shown) VH: QVQLQESGPGLVRPSQTLSLTCTVSGYSITSDHAWSWVRQPPGRGLEWIGYISYSGMITYNPSLKSRVTMLRDTSKNQFSLRLSSVTAADTAVYYCARTLARTTAIDFWGQGSLVTVSS VL: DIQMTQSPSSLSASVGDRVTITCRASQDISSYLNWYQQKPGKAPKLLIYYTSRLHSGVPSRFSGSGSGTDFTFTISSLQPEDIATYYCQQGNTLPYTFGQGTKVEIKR ?
8.2 fold vs 25 (Tocilizumab)
